pIC50 for assorted molecules
Target: Cyclin-dependent kinase 1/cyclin B1 (Homo sapiens, UniProt P06493)
Sequence (P06493 whole entry): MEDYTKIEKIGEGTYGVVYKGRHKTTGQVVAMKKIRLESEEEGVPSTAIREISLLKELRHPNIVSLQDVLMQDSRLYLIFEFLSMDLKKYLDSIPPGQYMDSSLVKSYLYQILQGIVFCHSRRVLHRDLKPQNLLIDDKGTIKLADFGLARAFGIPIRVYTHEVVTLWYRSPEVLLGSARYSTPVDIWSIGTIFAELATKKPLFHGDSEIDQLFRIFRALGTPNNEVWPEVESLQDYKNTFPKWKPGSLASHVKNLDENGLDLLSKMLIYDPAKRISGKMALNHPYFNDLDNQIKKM
Sequence (P14635 whole entry, further chain): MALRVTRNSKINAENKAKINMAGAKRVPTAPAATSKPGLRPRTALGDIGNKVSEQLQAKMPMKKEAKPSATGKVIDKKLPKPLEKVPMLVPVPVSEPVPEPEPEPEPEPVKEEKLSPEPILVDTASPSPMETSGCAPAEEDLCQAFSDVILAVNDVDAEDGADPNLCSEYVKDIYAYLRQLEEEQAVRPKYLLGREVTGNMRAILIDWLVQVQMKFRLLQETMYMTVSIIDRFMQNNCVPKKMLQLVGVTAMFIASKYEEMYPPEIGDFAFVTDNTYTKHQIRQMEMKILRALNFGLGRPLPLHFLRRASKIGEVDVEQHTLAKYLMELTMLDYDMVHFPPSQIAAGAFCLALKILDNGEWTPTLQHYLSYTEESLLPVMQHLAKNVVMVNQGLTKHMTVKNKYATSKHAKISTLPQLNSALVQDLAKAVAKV
Test: Inhibition of human CDK1/cyclin B after 2 hrs by IMAP-FP assay
pIC50: −log10 of the molar value.

A selection of reference data follows.
CC(C)c1n[nH]c(Cl)c1-c1ccnc(Nc2ccc(N3CCC(N(C)C)CC3)cn2)n1
< 4.82
Fc1ccc(-c2n[nH]cc2-c2ccnc(Nc3ccc(N4CCNCC4)cn3)n2)cc1
< 4.82

// moving on: another record for pIC50
[ask] I'd like to know its pIC50. The molecule in question is `Cc1[nH]nc(C(C)C)c1-c1ccnc(NC2CCN(C)CC2)n1`
[reply] < 4.82
